Assign Anti-PSMA Fab (SEQ ID NOs: 19, 20) signal to each entry below.
Target: T1, Anti-PSMA Fab (SEQ ID NOs: 19, 20)
T1 construct: Biotinylated and captured on neutravidin-coated plates in the phage ELISA; also called 006 PSMA Fab
Assay: phage binding ELISA; biotinylated PSMA Fab on neutravidin plate, clonal phage supernatant, anti-M13 HRP detection;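 note: wells were preincubated with blocking buffer either containing PSMA antigen or without it before crude phage supernatant was added, briefly incubated, then washed prior to detection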
Where no end group is shown, it is not given here.
Answers are plain numbers.

Some binders with recorded Anti-PSMA Fab (SEQ ID NOs: 19, 20) signal:
INSERT INTO measurements (binder, assay_result) VALUES
  ('HPNWCTPPWMCLGL [Phage-2239 peptide (SEQ ID NO: 2555)]', 1.56),
  ('DFKWCIPTWMCEVY [Phage-2238 peptide (SEQ ID NO: 2554)]', 1.56),
  ('VVKWCIPTWMCENS [Phage-2241 peptide (SEQ ID NO: 2557)]', 1.56),
  ('ADKWCIPEWMCQQD [Phage-2252 peptide (SEQ ID NO: 2568)]', 1.55),
  ('NIIRCTPAWMCDGF [Phage-2247 peptide (SEQ ID NO: 2563)]', 1.55);

Required: Anti-PSMA Fab (SEQ ID NOs: 19, 20) signal, one value per binder below.
1. SEKLCIPEWMCAQA (cysteine pairing not given here; also: displayed on bacteriophage as fusion to pIII) [Phage-2245 peptide (SEQ ID NO: 2561)]
2. IDKWCIPAWMCEST [Phage-2250 peptide (SEQ ID NO: 2566)]

Reply |
[1.56, 1.55]
